Biological target: GST-Hu-p50 (Homo sapiens, UniProt P19838 7-356)
Sequence (P19838 7-356): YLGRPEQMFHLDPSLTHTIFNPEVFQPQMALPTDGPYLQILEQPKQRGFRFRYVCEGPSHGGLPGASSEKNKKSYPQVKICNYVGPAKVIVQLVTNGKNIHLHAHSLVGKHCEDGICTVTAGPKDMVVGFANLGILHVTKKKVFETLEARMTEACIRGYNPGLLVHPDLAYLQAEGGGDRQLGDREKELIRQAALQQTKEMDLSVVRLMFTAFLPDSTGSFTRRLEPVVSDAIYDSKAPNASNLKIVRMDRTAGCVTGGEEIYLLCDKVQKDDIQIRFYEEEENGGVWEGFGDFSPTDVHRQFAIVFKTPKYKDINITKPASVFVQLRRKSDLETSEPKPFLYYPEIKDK
Experiment: protein-binding microarray (PBM); PBM: ~300 nM protein, 6 mM HEPES pH 7.8, 80 mM KCl, 0.5 mM EDTA, 0.5 mM EGTA, 6% glycerol, 35 ng/ul poly-dIdC, 1% milk, 1 h, room temperature; Ap Aiptasia and Nv Nematostella (sea anemones) / Co Capsaspora / Aq Amphimedon (sponge) / Dm Drosophila / Hu human; RHD is the Rel homology domain; high values mean tight binding
Settings: dsDNA, one strand shown
sequences and their reported binding signal
QUANTITY KIND: binding signal (z-score)

>>> val("CCGATTAACATCAGAATTTTCCCTGATGTTAATCGGGTCTTGATTCGCTTGACGCTGCTG")
5.01
>>> val("CCGATTAACATCAGCAAATTTCCTGATGTTAATCGGGTCTTGATTCGCTTGACGCTGCTG")
1.07
>>> val("CCGATTAACATCACGGGAAGCCCTGATGTTAATCGGGTCTTGATTCGCTTGACGCTGCTG")
1.11
>>> val("CCGATTAACATCACGGGATTACCTGATGTTAATCGGGTCTTGATTCGCTTGACGCTGCTG")
1.16
>>> val("CCGATTAACATCAGGAAGTACCCTGATGTTAATCGGGTCTTGATTCGCTTGACGCTGCTG")
3.47
>>> val("CCGATTAACATCAAAAACTTTCCTGATGTTAATCGGGTCTTGATTCGCTTGACGCTGCTG")
1.25
>>> val("CCGATTAACATCAAAGAATTCCCTGATGTTAATCGGGTCTTGATTCGCTTGACGCTGCTG")
5.05
>>> val("CCGATTAACATCAAGATTTCCCCTGATGTTAATCGGGTCTTGATTCGCTTGACGCTGCTG")
7.38
>>> val("CCGATTAACATCAGGATTTGCCCTGATGTTAATCGGGTCTTGATTCGCTTGACGCTGCTG")
1.37
>>> val("CCGATTAACATCAGGATTACCCATGATGTTAATCGGGTCTTGATTCGCTTGACGCTGCTG")
1.83
>>> val("CCGATTAACATCAGAGCTTCCCCTGATGTTAATCGGGTCTTGATTCGCTTGACGCTGCTG")
4.17
>>> val("CCGATTAACATCAAGGGGGGGACTGATGTTAATCGGGTCTTGATTCGCTTGACGCTGCTG")
4.74
>>> val("CCGATTAACATCAAAAAATCCCGTGATGTTAATCGGGTCTTGATTCGCTTGACGCTGCTG")
4.97
>>> val("CCGATTAACATCAGGGGGGTAACTGATGTTAATCGGGTCTTGATTCGCTTGACGCTGCTG")
4.07
>>> val("CCGATTAACATCAATCCTCCCCCTGATGTTAATCGGGTCTTGATTCGCTTGACGCTGCTG")
4.83
>>> val("CCGATTAACATCAGGGAGAACCCTGATGTTAATCGGGTCTTGATTCGCTTGACGCTGCTG")
2.75
>>> val("CCGATTAACATCAGAAACCCCCCTGATGTTAATCGGGTCTTGATTCGCTTGACGCTGCTG")
6.97
>>> val("CCGATTAACATCAGGGAATTGCATGATGTTAATCGGGTCTTGATTCGCTTGACGCTGCTG")
3.1
>>> val("CCGATTAACATCAGACTTTCCCCTGATGTTAATCGGGTCTTGATTCGCTTGACGCTGCTG")
5.61
>>> val("CCGATTAACATCAGGACGCCCCCTGATGTTAATCGGGTCTTGATTCGCTTGACGCTGCTG")
4.71
